- assay summary: soluble fraction after stress (log2 fold change); higher = more stays soluble; pooled small domains, quantitative proteomics;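 further: 20 min heating vs room temperature control held 20 min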
- experimental context: stress: 75 degC
Entries and their soluble fraction (log2)

Some solved cases for reference:
seq: HMSPAVEDYLEQIHNLIAQKGYARVVDIAGNLKISQASVTNMIQRMDADGLVVYERYRGVVLTETGRK
measurement name: soluble fraction (log2)
measured value: -1.28

seq: HMPSLGADIRALRKSRKMTLVALADALGRSVGWLSQVERDKSHATIADLGRMAEVLDVSISSFL
measurement name: soluble fraction (log2)
measured value: -0.273

Now, please, on to the next sequence.
Query string: Dear colleague, I am looking for the recorded soluble fraction (log2) of the following sequence: HMLPNLWVMGPGDHLWRVAEVAMTKHLGRPVANHEIDGYWRRLVALNRESLIDPDNPDLVFAGQVIELPPF
Result string: -2.59

====

- assay summary: soluble fraction after stress (log2 fold change); higher = more stays soluble; pooled small domains, quantitative proteomics
- experimental context: stress: 75 degC
Each record here notes measured soluble fraction (log2).
# respond with the number and nothing more

Query string: What value of measured soluble fraction (log2) is listed for HMDDVYMVPVKDIAINDLKQEFEKLGIPNIQNTIPDKDLNFFIVRKDDLALVNYAIEKTMER ?
Result string: 0.0193

Query string: Requested read-out: soluble fraction (log2). Entry: HMNGAAAEQARKQLMTALKASEFIAQDKLDEWLDALALPQEKRSAIIDAVDELDYEEAISELEN
Result string: 0.287

Query string: Any idea what soluble fraction (log2) was measured for HMDAKNNPQVMAQIRAILTAKGLSEDEVKTRLKTKNIDVDKMTDQEIIAQRPAIEAIINEMEQEKKQKMG ?
Result string: 0.0493

Query string: State the recorded soluble fraction (log2) for this entry: HMPKAMAIMSEIAGTVHIDDTKKSRHVEVTGVDDNGAPVTKSYLIPFGHRLKVMEGDVLVKGALLT
Result string: -0.0702

Query string: soluble fraction (log2) lookup needed for HMNSNLSLTSYEEKIFFLLEKEKNLDELILESSFKAGEILSILMDLEIKHAIVSIPGGKYRRK , thanks.
Result string: -3.85

Query string: I'd like to know its soluble fraction (log2). The sequence in question is HMTMNYYDILSIKRDATLEEIQKAYKEKSFQFHPDFNKGISDDSMFRIIKEAYETLSDTEKRNQYDASLNK
Result string: 0.45

====

- assay summary: soluble fraction after stress (log2 fold change); higher = more stays soluble; pooled small domains, quantitative proteomics
- experimental context: stress: 75 degC
measurement name: soluble fraction (log2)
Reply with just the number.

These solved cases illustrate the format of a correct answer.
seq: HMITKEDVANKKVNLLFFGNFHKMKLPDFEWGITEMMQDRDYLYGSLTKDLYFLGLVLDRKYKI
measurement name: soluble fraction (log2)
measured value: 0.241
--
seq: HMDNREKLRQEFLENLKELQEQNDIPQQEIDRVILDYDGVAEFLEDEGALKRYGGQLVDMTAYRAGAIPS
measurement name: soluble fraction (log2)
measured value: 0.0771

Query string: Given the sequence HMIDELNVGDIRFYLNRYGKEIQIEIIRIGDDGSVYARTMADNALFRVPEARLKNIGEKVPAEEVQRG , what is its reported soluble fraction (log2)?
Result string: -1.42

Query string: Consider the sequence shown here: HMTTKEEAAYQAIRSAIIDGELKPGQSVTIRDLASRFDLGRTPITDAMKHLALDGWLETTTGVGTRV What is its recorded soluble fraction (log2)?
Result string: -0.183

Query string: Please look up its soluble fraction (log2): HMSSVEVWINGKSSGLTSDNRAQILQQLPAESIERIEVIDNPSAKFSAEGSAGIINIVLKKD
Result string: 0.195

Query string: I have this sequence here, HMMKLSKRQEQIIAVVKEHQPVSGERISDILAVSRATLRSDLSFLTLSGILKASPKVGYTYES , and I need its recorded soluble fraction (log2).
Result string: -3.4

Query string: Quick one: soluble fraction (log2) for HMAPLADQIVDLLKEHDGFLPLHDNSSPEDIRATVGTSKKAFKQAIGGLFREKRIVIGPTGIRLIS ?
Result string: -0.694

Query string: Query (sequence): HMSDAGAIEPTIKEILASNPKAVEEYLAGNIKNINALIGQSMKALHGKADPQTVRNLLAKLLDEM ; field requested: soluble fraction (log2)
Result string: -0.252

Query string: If you can, please state the reported soluble fraction (log2) value of HMGVAFAPVEKIKHTKTGNELYAVKLAGRVEAEVFGQLRQKAKEYDGYYSKFSRAFLFSTPEDAEAFRAE .
Result string: -0.294

====

Measured soluble fraction (log2), listed per entry for reference.
- assay summary: soluble fraction after stress (log2 fold change); higher = more stays soluble; pooled small domains, quantitative proteomics
- experimental context: stress: 75 degC
A bare number is all that is needed in reply.

seq: HMGVTDLFAVLGFPRSPWLDAEELKQRHHALMADEASANSSPTILNEARRTLQNPALRIRHFLALEFPDH
measured value: -0.425
--
seq: HMNNIIYLIANKLDVGKRLDQFITIRTEFSRQRVINLIEDGYVKLNNKIINLKKYKIKGDEKIEITIPEIR
measured value: -1.32
--
seq: HMISLNEDQKLAILNEWNQRPDDPPFIKELIELVFPDIPEEAKTGRSRYGIAIKKFLAEKSLQAKV
measured value: -0.197
--
seq: HMGIAKLLTEQEYKIALLAAERRTNAMIAEEMNLTENTVKTHLKHIFDKVGIAGNAKNKRHLLADMMNSER
measured value: -0.552
--
seq: HMSRTLLVYVTGAVRQPGVYELPEGSRFFDAVKAAGDVLPYAVMEDINMAEPLSDGMKIHIPLDPEQ
measured value: -0.687

Query string: Any idea what its soluble fraction (log2) is? The sequence is HMYQKERDKEISEIETFLKKITNANGTRAYSDESIADMSYVELLNLYEGITSKLTEEEIENI
Result string: 0.0659

Query string: I would be grateful if you could share the reported soluble fraction (log2) for HMNIMNINQALNVLNLKGTVSKEELAKAYKKMAIKYHPDRNPTGVEMMKVINSAYEFLKGLNLEEIKH .
Result string: 0.0759

Query string: Sample HMEKKTILIPPVITVRALAEISQIPVNRLLQELIKNGVFTSINEKIDFDTAVIIGADLNLDIQLL — what was its soluble fraction (log2)?
Result string: -1.86

Query string: If you can, please state the reported soluble fraction (log2) value of HMDSTSEILKVIQNIVKKEDPYHPLSDDKISNLLNDLDYQISRRTVAKYRDILTIPSSSKRRKL .
Result string: -0.256

Query string: Looking for the measured soluble fraction (log2) of HMTGNWRQMHKVKSKETIYGIAKEYGITVDELTKANPGMEAPGYTLKKGDYIFIPYATADANV , can you help?
Result string: -0.432

Query string: Consider the sequence HMQYKTRVINLSILEVGMVLGRDLINKDGKIIVKKDVAISDFLKDHLIGLSKIKEIEPQIYIKV and give its measured soluble fraction (log2).
Result string: -1.15

====

- assay summary: soluble fraction after stress (log2 fold change); higher = more stays soluble; pooled small domains, quantitative proteomics
- experimental context: stress: 75 degC
measurement name: soluble fraction (log2)
Output spec: single numeric token, no unit.

The cases that follow already have their soluble fraction (log2) on record.
seq: HMGDLLTVDRVAATSGLGVDTIRYYQRLGLLDPPVRHGRRALYSTAHLDRLVEIRQLADEGFSLAQIATL
measured value: -1.05
//
seq: HMSEQLHALIDRLDDIPDDELKKNWPGTLRDLVDVISAELHRQGIEPAQAGMLARKVAAAQAGYMG
measured value: -0.486
//
seq: HMDRFVLQLSKRYYDSSIEGVRKALAAFPVKTELLDQDRGGRPFYHENGKENEPVFRIMFHPEEGM
measured value: -0.421

Attention now shifts to the item below.
Query string: Look at this sequence and give its reported soluble fraction (log2). HMPTERLSMRRIRELLRLRFEVGLSTRLIATALGISKGAVGDYLQRAQVAGLGWPLPENLNDAALERRLFP
Result string: -1.38

====

- assay summary: soluble fraction after stress (log2 fold change); higher = more stays soluble; pooled small domains, quantitative proteomics
- experimental context: stress: 75 degC
measurement name: soluble fraction (log2)
// print number alone

seq: HMIMNDIQAKVLEIAETKDLGSITYYRLSKMLGVDHPYRVKYAIDKLIEKGLLTAKSDGSITKAI
measured value: -1.47

Query string: Which soluble fraction (log2) reading was recorded for the sequence HMGDGYTYYYDDTVLALGFTKIGNDYYIFNTFSGKMYKDATMWVNDNPYGIKGGMHYFDASGKMFV ?
Result string: 0.215

Query string: Form field: reported soluble fraction (log2) of HMKLIRLGKAAGELNVGMSTLAEFLQSKGHSVDPNPNTKLTPEQYALLRMEFAADQTLKKLTKQP
Result string: 0.452

These measurements were taken from the domain aggregation screens of Martell et al. (2025).
